Measured self-cleavage accompanies every entry in the list below.
B1: Hairpin Ribozyme (parent)
chain: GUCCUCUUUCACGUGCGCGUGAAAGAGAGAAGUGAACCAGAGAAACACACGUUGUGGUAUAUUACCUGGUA

Variants of: B1
TEST_SUMMARY: self-cleavage, relative activity (ratio to wild type); higher = more cleavage; co-transcriptional

{"VARIANT_KEY": "G51A U60C", "self-cleavage": 0.944}
{"VARIANT_KEY": "G17C C38G", "self-cleavage": 0.245}
{"VARIANT_KEY": "C18G A59C", "self-cleavage": 0.224}
{"VARIANT_KEY": "G19U U55G", "self-cleavage": 0.313}
{"VARIANT_KEY": "C12G A39G", "self-cleavage": 0.29}
{"VARIANT_KEY": "U2C G25U", "self-cleavage": 0.134}
{"VARIANT_KEY": "A11C G68U", "self-cleavage": 0.307}
{"VARIANT_KEY": "C3A A61C", "self-cleavage": 0.16}
{"VARIANT_KEY": "U9A A11G", "self-cleavage": 0.473}
{"VARIANT_KEY": "G17U A64G", "self-cleavage": 0.624}
{"VARIANT_KEY": "C3A A24G", "self-cleavage": 0.704}
{"VARIANT_KEY": "C38G C48G", "self-cleavage": 0.071}
{"VARIANT_KEY": "A26U U33G", "self-cleavage": 0.107}
{"VARIANT_KEY": "A23C A49C", "self-cleavage": 0.136}
{"VARIANT_KEY": "A31C U58C", "self-cleavage": 0.247}
{"VARIANT_KEY": "G21U U53A", "self-cleavage": 0.836}
{"VARIANT_KEY": "U14A G69U", "self-cleavage": 0.205}
{"VARIANT_KEY": "A41G G54C", "self-cleavage": 0.672}
{"VARIANT_KEY": "A11C U55A", "self-cleavage": 0.448}
{"VARIANT_KEY": "U7A G68U", "self-cleavage": 0.238}
{"VARIANT_KEY": "U60G A61U", "self-cleavage": 0.259}
{"VARIANT_KEY": "G1A U2A", "self-cleavage": 0.574}
